Sourced from paper PMC8322572

assay-protocol: Pharmacokinetics in rats
Format: in vivo, male Sprague–Dawley rats
conditions: male, Sprague-Dawley, rat, serum, iv, 5 mg/kg
property-name: Tmax (min)
Numbers only here, please. The scale is min.

Any idea what Tmax was measured for Cl.[2H]C(N)(COc1ccccc1C(F)(F)F)c1ccccc1 (stereo not shown) ?
10.2

---

assay-protocol: Pharmacokinetics in rats
Format: in vivo, male Sprague–Dawley rats
conditions: male, Sprague-Dawley, rat, serum, po, 25 mg/kg
property-name: AUC

Any idea what AUC was measured for Cc1cccc(C)c1OCC(C)N (centres unmarked) [Mexiletine, reference compound] ?
839 ng·h/mL

Any idea what AUC was measured for Cl.[2H]C(N)(COc1ccccc1C(F)(F)F)c1ccccc1 (centres unmarked) ?
807 ng·h/mL

---

assay-protocol: Pharmacokinetics in rats
Assay type: in vivo, male Sprague–Dawley rats
conditions: male, Sprague-Dawley, rat, serum, iv, 5 mg/kg
property-name: Cmax
Units required after the number.

Any idea what Cmax was measured for Cl.[2H]C(N)(COc1ccccc1C(F)(F)F)c1ccccc1 (centres unmarked) [Compound 16] ?
224 ng/mL

Any idea what Cmax was measured for Cc1cccc(C)c1OCC(C)N (centres unmarked) [Mexiletine, reference compound] ?
289 ng/mL

---

assay-protocol: Pharmacokinetics in rats
Type: in vivo, male Sprague–Dawley rats
conditions: male, Sprague-Dawley, rat, serum, iv, 5 mg/kg
property-name: AUC
Units required after the number.

Any idea what AUC was measured for Cl.[2H]C(N)(COc1ccccc1C(F)(F)F)c1ccccc1 (stereo not shown) [Compound 16] ?
345 ng·h/mL

---

assay-system: Human FMO1 (Homo sapiens, UniProt Q01740)
Sequence (Q01740 whole entry): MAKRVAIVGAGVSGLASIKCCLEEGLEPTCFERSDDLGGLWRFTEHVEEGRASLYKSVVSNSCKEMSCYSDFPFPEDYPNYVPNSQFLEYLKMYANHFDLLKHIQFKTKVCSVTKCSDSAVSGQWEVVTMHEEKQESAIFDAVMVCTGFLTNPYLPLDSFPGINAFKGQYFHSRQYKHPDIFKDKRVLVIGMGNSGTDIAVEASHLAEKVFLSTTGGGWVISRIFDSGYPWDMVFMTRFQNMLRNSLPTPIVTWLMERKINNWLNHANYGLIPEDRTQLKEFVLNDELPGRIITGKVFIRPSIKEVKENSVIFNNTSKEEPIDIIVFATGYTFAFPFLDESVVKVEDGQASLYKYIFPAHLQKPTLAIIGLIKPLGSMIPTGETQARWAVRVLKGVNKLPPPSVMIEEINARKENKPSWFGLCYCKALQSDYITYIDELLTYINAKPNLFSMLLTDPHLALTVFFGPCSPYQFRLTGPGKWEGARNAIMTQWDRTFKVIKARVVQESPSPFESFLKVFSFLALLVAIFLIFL
assay-protocol: Metabolism by highly purified human FMO1
Assay type: in vitro ADME
conditions: Table 4; mexiletine, 13, 14, 15, 16 at 88, 45, 65, 69, 56 µM; 30 min, 37℃
property-name: Human FMO1 (rate metabolized)

Human FMO1 (Homo sapiens, UniProt Q01740) / Human FMO1 (rate metabolized) / Cl.[2H]C(N)(COc1ccccc1C)c1ccccc1 (stereo not shown) : value?
2.22 ± 0.04 nmol/min/mg of protein

Human FMO1 (Homo sapiens, UniProt Q01740) / Human FMO1 (rate metabolized) / Cc1cccc(C)c1OCC(C)N (stereo not shown) [Mexiletine, reference compound] : value?
14.88 ± 0.15 nmol/min/mg of protein

Human FMO1 (Homo sapiens, UniProt Q01740) / Human FMO1 (rate metabolized) / Cl.[2H]C(N)(COc1ccccc1C(F)(F)F)c1ccccc1 (stereo not shown) : value?
0.67 ± 0.02 nmol/min/mg of protein

Human FMO1 (Homo sapiens, UniProt Q01740) / Human FMO1 (rate metabolized) / Cl.[2H]C(N)(COc1cc(C)cc(C)c1)c1ccccc1 (stereo not shown) : value?
3.11 ± 0.05 nmol/min/mg of protein

---

Answer each item with its documented clearance.
assay-protocol: Pharmacokinetics in rats
Type: in vivo, male Sprague–Dawley rats
conditions: male, Sprague-Dawley, rat, serum, iv, 5 mg/kg

Any idea what clearance was measured for Cc1cccc(C)c1OCC(C)N (centres unmarked) [Mexiletine, reference compound] ?
215 mL/min/kg

Any idea what clearance was measured for Cl.[2H]C(N)(COc1ccccc1C(F)(F)F)c1ccccc1 (centres unmarked) [Compound 16] ?
233 mL/min/kg

---

assay-protocol: Pharmacokinetics in rats
Format: in vivo, male Sprague–Dawley rats
conditions: male, Sprague-Dawley, rat, serum, po, 25 mg/kg
property-name: Cmax
Units required after the number.

Any idea what Cmax was measured for Cl.[2H]C(N)(COc1ccccc1C(F)(F)F)c1ccccc1 (centres unmarked) [Compound 16] ?
0.238 µg/mL

Any idea what Cmax was measured for Cc1cccc(C)c1OCC(C)N (centres unmarked) [Mexiletine, reference compound] ?
0.167 µg/mL

---

Answer each item with its documented Tmax.
assay-protocol: Pharmacokinetics in rats
Type: in vivo, male Sprague–Dawley rats
conditions: male, Sprague-Dawley, rat, serum, po, 25 mg/kg
Numbers only here, please. The scale is h.

Any idea what Tmax was measured for Cl.[2H]C(N)(COc1ccccc1C(F)(F)F)c1ccccc1 (centres unmarked) ?
1.5

Any idea what Tmax was measured for Cc1cccc(C)c1OCC(C)N (centres unmarked) [Mexiletine, reference compound] ?
1
